Data origin: ChEMBL document CHEMBL3507680

Assay: Human HepG2 cell viability assay in 384 well format
Format: toxicity, cell-based
Design: dose 125 nL, time 70.5 hour; concentration not given beside the values
Conditions: HepG2 cells, read-out: Inhibition
Recorded measurements of cytotoxicity at 70.5 h, one per entry
Field format: number, assumed %, no unit text.

These recorded examples may help you get a feel for the data.
{"columns": ["compound", "reported_property", "unit_abbreviation", "value_measured"],
 "data": [
  ["Cc1ccnc(C2CN(c3ccnc(C)n3)C2)n1", "cytotoxicity at 70.5 h", "%", -5.49],
  ["Cc1noc(C)c1CN(C)C(=O)c1n[nH]c(N)c1-c1ccccc1", "cytotoxicity at 70.5 h", "%", -5.4],
  ["Cc1ccc(N2Cc3c(CN(C)C)nn(C)c3C2)nn1", "cytotoxicity at 70.5 h", "%", -14.2],
  ["O=C1O[C@@H]2CN(c3ncccn3)C[C@@H]2N1CCCc1ccc(F)cc1", "cytotoxicity at 70.5 h", "%", -7.46],
  ["c1cc(CN2CCO[C@H]3[C@H](OCC4CCOCC4)CC[C@@H]32)co1", "cytotoxicity at 70.5 h", "%", -9.4]
]}

[ask] Quote cytotoxicity at 70.5 h reported for Cn1ccnc1CN1CCN(CC(O)c2ccc(F)cc2)CC1 (centres undefined) please.
[reply] -3.86

[ask] In one line, give reported cytotoxicity at 70.5 h of the entry `O=C(C1=CCCC1)N1C[C@@H]2COC[C@]2(COCC2CC2)C1` .
[reply] -6.62

[ask] Answer with the recorded cytotoxicity at 70.5 h for the compound listed here: `CCOCCNC(=O)c1cc(Br)c2c(c1)OCCO2`
[reply] -10.7

[ask] Assign cytotoxicity at 70.5 h to the following record: `CN(C)CCCNc1ncnc2cccc(F)c12`
[reply] 15.7

[ask] In one line, give reported cytotoxicity at 70.5 h of the entry CN1CCN(CC2(O)CCN(C(=O)CCc3ccccc3F)C2)CC1 (centres undefined) .
[reply] 1.21

[ask] Answer with reported cytotoxicity at 70.5 h of CC(C)CCn1cc(C(C(=O)O)N2CCC(c3ccncc3)CC2)cn1 (centres undefined)
[reply] 19.8

[ask] Please report cytotoxicity at 70.5 h for the following compound: `CSCCc1ccc(NC(=O)NCc2ccnc(N(C)C)c2)cc1`
[reply] 16.5

[ask] Identify measured cytotoxicity at 70.5 h corresponding to `Oc1cccc2ccc(CN3CCC4(CCNCC4)C3)nc12`
[reply] -4.99

[ask] Quick one: give measured cytotoxicity at 70.5 h for `COCCn1ccc2c(C(=O)O)cccc21`
[reply] -3.92

[ask] Report cytotoxicity at 70.5 h for CCNC(=O)CCC(=O)NC(Cc1ccccc1)c1sccc1C (centres undefined)
[reply] -7.03

[ask] Input `COCCN1CCc2nc(SCc3ccc(F)cc3)[nH]c(=O)c2C1` , output reported cytotoxicity at 70.5 h.
[reply] 28.7

[ask] Specify reported cytotoxicity at 70.5 h for the compound shown: `Cc1nonc1CC(=O)N1C[C@@H]2CC[C@H](C1)N(Cc1ccccc1)C2=O`
[reply] 8.97
